Experiment: Log P (hydrophobicity)
measured.property: Log P
Write the value as a bare number.

INSERT INTO results (smiles_entry, reported_result) VALUES
  ('O=c1c(-c2ccccc2)c(O)c2cc(/C=C/c3ccc(C(F)(F)F)cc3)cnc2n1OCc1ccccc1', 6.85),
  ('O=c1c(-c2ccccc2)c(O)c2cc(CCc3ccc(C(F)(F)F)cc3)cnc2n1O', 4.94),
  ('CCOC(=O)c1c(O)c2cc(CCc3ccc(C(F)(F)F)cc3)cnc2n(O)c1=O', 3.60),
  ('CCOC(=O)c1c(O)c2cc(-c3cccc(OC)n3)cnc2n(O)c1=O', 1.43),
  ('CCOC(=O)c1c(O)c2cc(/C=C/c3ccc(C(F)(F)F)cc3)cnc2n(OCc2ccccc2)c1=O', 5.50);

Lab note: next compound to report on.
Prompt line: Identify measured Log P associated with `CCOC(=O)c1c(O)c2cc(-c3cccc(OC)n3)cnc2n(OCc2ccccc2)c1=O`
Response line: 3.54
